SYSTEM_TESTED: Cytochrome P450 2B6 (Homo sapiens, UniProt P20813)
Sequence (P20813 whole entry): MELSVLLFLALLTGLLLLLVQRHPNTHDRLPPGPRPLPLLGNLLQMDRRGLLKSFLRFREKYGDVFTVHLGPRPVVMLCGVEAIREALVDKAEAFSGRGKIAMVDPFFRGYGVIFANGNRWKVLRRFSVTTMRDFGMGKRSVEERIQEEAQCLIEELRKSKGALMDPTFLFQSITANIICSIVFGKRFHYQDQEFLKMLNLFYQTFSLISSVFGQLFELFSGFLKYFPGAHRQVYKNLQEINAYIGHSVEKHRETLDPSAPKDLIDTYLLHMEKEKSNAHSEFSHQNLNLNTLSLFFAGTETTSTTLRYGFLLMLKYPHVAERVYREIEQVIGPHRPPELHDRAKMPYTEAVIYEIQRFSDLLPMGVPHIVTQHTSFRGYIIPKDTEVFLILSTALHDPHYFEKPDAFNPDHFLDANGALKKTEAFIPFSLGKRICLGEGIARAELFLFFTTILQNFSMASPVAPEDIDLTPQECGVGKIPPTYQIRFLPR
ASSAY_METHOD_TEXT: Reversible inhibition of CYP2B6 bupropion hydroxylase activity in human liver microsomes by LC-MS/MS analysis
Format: ADME
pIC50: −log10 of the molar value.
PROPERTY_MEASURED: pIC50

Record COc1ccc(Cl)cc1-c1cc(=O)[nH]c(=S)n1CC(N)=O / Cytochrome P450 2B6 (Homo sapiens, UniProt P20813), pIC50 recorded as < 4.00
